Recorded values, source patent US20260028391A1.

systemName: T1, DS-Cav1 RSV F (respiratory syncytial virus)
T1 construct: also called DC-VCav1
assayName: ELISA on DS-Cav1 RSV F
Exercise: state measured EC50 for each of the binders provided.
Numbers only, in µg/mL.

Here are 2 binders together with their reported answers.
{"binder": "MPH12 VH-D62E / MPH12 VL-S26A (antibody, V domains shown, MPH12 variant; VH and VL only) VH: QVQLVESGGGLVKPGGSLRLSCVASGFTFSGFYMKWIRQAPGKGLEWVSSISASGSYTNYAESVEGRFTVSRDNAKNSLFLLMSSLRAEDTAVYYCARGDSYCGASACHGEFFHKWGQGTLVTVSS VL: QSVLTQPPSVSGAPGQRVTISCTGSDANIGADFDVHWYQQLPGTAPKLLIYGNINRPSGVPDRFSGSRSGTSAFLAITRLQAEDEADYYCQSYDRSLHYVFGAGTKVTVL", "EC50 (µg/mL)": 0.031}
{"binder": "MPH12 VH-FRGL-S63A / MPH12 VL (antibody, V domains shown, MPH12 variant; VH and VL only) VH: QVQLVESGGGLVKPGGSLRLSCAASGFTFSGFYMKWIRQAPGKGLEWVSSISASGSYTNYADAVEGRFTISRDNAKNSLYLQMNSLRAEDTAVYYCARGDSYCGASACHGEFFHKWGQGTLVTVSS VL: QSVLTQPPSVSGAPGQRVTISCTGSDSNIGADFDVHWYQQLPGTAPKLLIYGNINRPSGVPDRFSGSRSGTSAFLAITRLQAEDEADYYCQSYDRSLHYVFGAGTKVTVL", "EC50 (µg/mL)": 0.0238}

From here, focus on the item given below.
// MPH12 VH-S63A / MPH12 VL-FRGL (antibody, V domains shown, MPH12 variant; VH and VL only) VH: QVQLVESGGGLVKPGGSLRLSCVASGFTFSGFYMKWIRQAPGKGLEWVSSISASGSYTNYADAVEGRFTVSRDNAKNSLFLLMSSLRAEDTAVYYCARGDSYCGASACHGEFFHKWGQGTLVTVSS VL: QSVLTQPPSVSGAPGQRVTISCTGSDSNIGADFDVHWYQQLPGTAPKLLIYGNINRPSGVPDRFSGSKSGTSASLAITGLQAEDEADYYCQSYDRSLHYVFGTGTKVTVL : EC50 value = 0.0254
